Recorded TGI, one value per entry.
# System: HCC-2998 colon
# assay: NCI tumour cell line growth inhibition, 48 h
experimental.readout: TGI

compound | value.observed
CC(C)[C@@H](C)CC[C@@H](C)C1CC=C2[C@@H]3CCC4C[C@@H](O[Si](C)(C)C(C)(C)C)CC[C@]4(C)C3CC[C@@]21C (stereo partly drawn) | > 100 µM
COc1cc([C@@H]2c3cc4c(cc3[C@@H](NC(=O)c3cccc(C#N)c3)C3COC(=O)[C@@H]32)OCO4)cc(OC)c1O (stereo partly drawn) | 6.34 µM
CC(C)OC(=O)c1cc(NC(=O)C(C)(C)C)c(F)cc1Cl | > 100 µM
C=C1C(=O)O[C@@H]2C[C@@H]3[C@]4(CC[C@]5(C)[C@@H]([C@H](C)CC/C=C(\C)C=O)CC[C@@]35C)C[C@]4(CCC(=O)OC)[C@H]12 | 4.1 µM
CCCCCOc1ccc(Nc2c(O)c3c(c(O)c2Cl)C(=O)C=CC3=O)cc1 | > 7.84 µM
O=c1cc(N2CCOCC2)[nH]c(=O)n1-c1cccc(Cl)c1 | > 100 µM
CC(=O)Oc1cn(-c2ccc(Cl)cc2)nc1C1=NN(C(C)=O)C(c2ccc(F)cc2F)O1 (stereo not drawn) | 55.3 µM
CCc1n[nH]c(=S)n1/N=C/c1ccc(-c2ccc([N+](=O)[O-])cc2)o1 | > 100 µM

###

# Tested on: SW-620 colon
# assay: NCI tumour cell line growth inhibition, 48 h

compound | TGI
CCn1cc(C2NC(=O)c3ccccc3N2)c2cccc(C)c21 (stereo unspecified) | > 100 µM
O=C(NCCCCN(CCCNC(=O)C(F)(F)F)Cc1ccccc1)C(F)(F)F | > 100 µM
CC(=O)OCC1OC(n2c(C)c(C(C)=O)c(-c3ccc(Cl)cc3)c(C#N)c2=S)C(OC(C)=O)C(OC(C)=O)C1OC(C)=O (stereo unspecified) | > 100 µM
CCOC(=O)/C=C(\C)Sc1cc(O)c2ccccc2c1O | > 100 µM
COc1ccc(/C=C/c2cc(OC)cc(OC)c2)cc1 | > 100 µM
CCOC(=O)C(=CNC(=S)c1ccncc1)C(=O)OCC | > 100 µM
CN1CCCN(C)CCCN(C)CCCN(C)CCC1 | > 100 µM
NC(N)=NCCCC(NC(=O)OCCCCCn1ccc(N)nc1=O)C(=O)O (stereo unspecified) | > 100 µM
Oc1c(CNCCCN2CCCC2)cc(Cl)c2cccnc12 | 17.1 µM
CCOC(=O)Oc1ccc(C(CNC(C)C)OC(=O)OCC)cc1OC(=O)OCC (stereo unspecified) | > 100 µM
CCCCCOc1ccc(Nc2c(O)c3c(c(O)c2Cl)C(=O)C=CC3=O)cc1 | > 10 µM
Cn1ccnc1CCc1ccc(Cl)cc1Cl | > 100 µM
COc1cc([C@@H]2c3cc4c(cc3[C@@H](NC(=O)c3cccc(C#N)c3)C3COC(=O)[C@@H]32)OCO4)cc(OC)c1O (stereo partly specified) | 17.8 µM
O=c1cccccc1NCCCCCCCCNc1cccccc1=O | > 100 µM
COc1cc(/C=C\c2cc(/C=C\c3ccc(O)c(OC)c3)n(C(=O)COc3ccc(Cl)cc3Cl)n2)ccc1O | > 100 µM
Cc1ccc2c(c1)C(=O)C(c1c(-c3[nH]c(=O)c4ccc(C)cc4c3O)c(O)c3ccccc3c1O)=NC2=O | 3.44 µM
c1ccc2[nH]c(C3CCCCO3)nc2c1 (stereo unspecified) | > 100 µM
COC(=O)C1=C(C(=O)OC)C2(C)OC1C(=O)C21CC1 (stereo unspecified) | 38.6 µM
COc1ccc2c(c1)CCc1cc(C(N)=O)c3nnnn3c1-2 | > 100 µM
Cc1[nH]n(-c2ncc(C#N)c(=O)[nH]2)c(=O)c1CCO | > 100 µM
N#C/C(=C\c1ccc2c(c1)OCO2)n1nnc2ccccc21 | > 100 µM
CN1C(=O)C(O)CC1c1ccc(C(F)(F)F)cc1 (stereo unspecified) | > 100 µM
CCOC(=O)C(=Cc1ccc(-c2ccccc2)cc1)C(=O)OCC | 4.28 µM
COc1cc2c[n+](C)c3c4cc(OC)c(OC)cc4c(OCCCCCCCCOc4cc5c6cc(OC)c(OC)cc6c[n+](C)c5c5cc(OC)c(OC)cc45)cc3c2cc1OC | > 100 µM
O=C1C(C(Nc2ccccc2)c2ccccc2)=C([O-])c2ccccc21.O=C1C(C(Nc2ccccc2)c2ccccc2)=C([O-])c2ccccc21.[Ni+2] (stereo unspecified) | > 100 µM
COc1cccc(CNCCN2C(=O)c3ccc4c5c(ccc(c35)C2=O)C(=O)N(CCNCc2cccc(OC)c2)C4=O)c1 | 5.32 µM
CCOc1c(OC)cc(C2c3cc4c(c(OCC)c3CC3COC(=O)C32)OCO4)cc1OC (stereo unspecified) | > 100 µM
CC1=C(C)C2(C#N)C(=O)N3C(=NC(c4ccccc4)NC3c3ccccc3)C2(C#N)C(c2ccccc2)N1 (stereo unspecified) | > 100 µM
COc1ccc(-n2cnc3c(N)nc(N)nc32)cc1 | > 100 µM
COc1ccc2cnc(N)c(C#Cc3cc(C(=O)Nc4ccc(CN5CCN(C)CC5)c(C(F)(F)F)c4)cnc3C)c2c1 | 6.25 µM
O=C1CC(Cl)c2c1csc2Br (stereo unspecified) | 12.6 µM
C[C@]12OC(=O)[C@]3(O)CC[C@H]4[C@@H](C[C@@H](O)[C@@]5(Cl)CC=CC(=O)[C@]45C)[C@]45OCC6C(=O)O[C@@H]1C[C@@]6(C)[C@H](C4=O)[C@@]32O5 (stereo partly specified) | 12.6 µM
COc1ccccc1NC(=O)c1ccc(NC2=C(Cl)C(=O)N(Cc3ccccc3)C2=O)cc1 | > 100 µM
COc1ccc(SS(=O)(=O)c2ccc(OC)cc2)cc1 | 18.1 µM
Oc1cc2ccccc2cc1-c1n[nH]c(=S)n1CCc1ccccc1 | > 100 µM
COc1ccc2c(c1)/C(=C\c1c(-c3ccccc3)nc3n1CCS3)C(=O)N2 | 16.3 µM
CCCC(=O)OCC(COC(=O)CCC)OC(=O)CCC | > 100 µM
O=c1cc(NNc2ccc(F)cc2)[nH]c(=O)[nH]1 | 33.1 µM
CC(C)c1ccccc1NC(=O)CCC(=O)NN | > 100 µM
COC(=O)c1ccc2[nH]c(O)c(C(=Nc3ccc(N(C)C(=O)CN4CCN(C)CC4)cc3)c3cccc(OC)c3)c2c1 | 4.95 µM
[N-]=[N+]=NCC1OCC(O)C(OCc2ccccc2)C1OCc1ccccc1 (stereo unspecified) | > 100 µM

###

# System: MDA-MB-231 breast
# assay: NCI tumour cell line growth inhibition, 48 h

compound | TGI
CCOC(=O)C(=CNC(=S)c1ccncc1)C(=O)OCC | > 100 µM
O=C(NCCCCN(CCCNC(=O)C(F)(F)F)Cc1ccccc1)C(F)(F)F | > 100 µM
CC(=O)OCC1OC(n2c(C)c(C(C)=O)c(-c3ccc(Cl)cc3)c(C#N)c2=S)C(OC(C)=O)C(OC(C)=O)C1OC(C)=O (stereo not given) | > 100 µM
COc1ccc2c(c1)C(=Nc1ccc(F)c(F)c1F)c1c-2c(Nc2ccc(F)c(F)c2F)nc2ccccc12 | > 60.1 µM
CCOC(=O)c1cnc2c(C)cc(C)cc2c1NCCCN(C)C | 20.4 µM
Cc1cc(Cl)ccc1Nc1nc(C(F)(F)F)ccc1C(=O)N/N=C/c1cccc(O)c1 | 35.4 µM
CC(C)(O)C1CC[C@]2(C)CC[C@]3(C)[C@H](CC[C@@H]4[C@@]5(C)CC[C@H](O)C(C)(C)[C@@H]5CC[C@]43C)[C@@H]12 (stereo not given in full) | > 100 µM
NC(N)=NCCCC(NC(=O)OCCCCCn1ccc(N)nc1=O)C(=O)O (stereo not given) | > 100 µM
CC(=O)c1c(-c2ccc(Cl)cc2)c(C#N)c(=S)n(C2OC(CO)C(O)C(O)C2O)c1-c1ccccc1 (stereo not given) | > 100 µM
CC(C)=NNC1=NC(C)(C)P(=O)(NNc2ncccn2)S1 (stereo not given) | > 100 µM
N/C(=N\Nc1ccc(C(=O)O)cc1)c1cnccn1 | > 100 µM
C=CCN(c1cc(OCc2ccccc2)c2c(c(C)cn2S(=O)(=O)c2ccc([N+](=O)[O-])cc2)c1[N+](=O)[O-])S(C)(=O)=O | > 100 µM
CC1=C(C)C2(C#N)C(=O)N3C(=NC(c4ccccc4)NC3c3ccccc3)C2(C#N)C(c2ccccc2)N1 (stereo not given) | > 100 µM
O=S(=O)(Nc1cccc(Cl)c1)c1ccc(-c2cnc(C3CC3)o2)cc1 | 22 µM
Cn1c(CCC2(C)Cc3ccccc3C(=O)O2)cc2ccccc2c1=O (stereo not given) | > 100 µM
C=CCC(NCc1ccccc1)[C@H](OCc1ccccc1)[C@@H]1COC(C)(C)O1 (stereo not given in full) | > 100 µM
CN(C)C=Nc1ccc2c3c(cccc13)-c1ccccc1-2 | 28.2 µM
CCOC(=O)C(=Cc1ccc(-c2ccccc2)cc1)C(=O)OCC | 7.2 µM
COc1cccc(CNCCN2C(=O)c3ccc4c5c(ccc(c35)C2=O)C(=O)N(CCNCc2cccc(OC)c2)C4=O)c1 | 6.61 µM
CSc1ccc(NC(=O)C2CCCCC2C(=O)O)cc1 (stereo not given) | > 100 µM
